# Tested on: B. Anthracis
# experiment: microbe, parasite or virus in culture
# Type: cell-based
# reported conditions: Bacillus anthracis, 3 μM; read-out: B. Anthracis 3 μM (growth inhibition)
inhibition at 3 µM listing for selected molecules.
Just the number please, in %, no unit attached.

Asked: Can you look up the measured inhibition at 3 µM of CCC(C(=O)O)N1C(=O)/C(=C\c2ccc(-c3ccc(Cl)c(Cl)c3)o2)NC1=S (centres unmarked) [Cmpd 44] for me?
Given back: 4.13

Asked: Moving on to O=C1NC(=S)NC(=O)C1=Cc1ccc(-c2cccc(C(=O)O)c2)o1 [Cmpd 28]
Given back: -9.26

Asked: Moving on to O=C(O)C(Cc1ccccc1)N1C(=O)/C(=C\c2ccc(-c3ccc(Cl)cc3)s2)NC1=S (centres unmarked) [Cmpd 35]
Given back: -5.4

Asked: Moving on to O=C(O)C(Cc1ccccc1)N1C(=O)/C(=C\c2ccc(Cl)c(Cl)c2)NC1=S (centres unmarked) [Cmpd 71]
Given back: 0.05

Asked: Moving on to O=C(O)C(Cc1ccccc1)N1C(=O)/C(=C\c2ccc(-c3ccc(Br)c(Cl)c3)s2)NC1=S (centres unmarked) [Cmpd 41]
Given back: 19.5

Asked: Moving on to O=C1NC(=O)C(=Cc2ccc(Br)o2)C(=O)N1 [Cmpd 19]
Given back: 3.33

Asked: Moving on to COc1ccc(-c2ccc(/C=C3/NC(=S)N(C(Cc4ccccc4)C(=O)O)C3=O)s2)cc1 (centres unmarked) [Cmpd 33]
Given back: -3.85

Asked: Moving on to Cc1oc(=O)oc1COC(=O)C(Cc1ccccc1)N1C(=O)/C(=C\c2ccc(-c3ccc(Cl)c(Cl)c3)o2)NC1=S (centres unmarked) [Cmpd 64]
Given back: -0.01

Asked: Moving on to O=C(O)C(Cc1ccccc1)N1C(=O)/C(=C\c2ccc(-c3ccc(F)cc3)s2)NC1=S (centres unmarked) [Cmpd 34]
Given back: 0

Asked: Moving on to O=C1NC(=O)C(=Cc2ccc(Br)s2)C(=O)N1 [Cmpd 18]
Given back: 0

Asked: Moving on to O=C(O)C(Cc1ccccc1)N1C(=O)/C(=C\c2ccc(-c3ccc(Br)cc3)s2)NC1=S (centres unmarked) [Cmpd 36]
Given back: 76.9
